Every entry's value here was drawn from patent US5607937A.

- protocol description: plasma level in the stasis-induced thrombosis study, rectal application
- Assay type: in vivo
- conditions: rat, rectal 100 mg/kg, 60 min
outcome measure: concentration at 1 h (ng/mL)
Write the value in ng/mL as a bare number.

QUERY: Please give measured concentration at 1 h of the following entry: CC(=O)N1CCN(C(=O)[C@H](Cc2cccc(C(=N)N)c2)NS(=O)(=O)c2ccc3ccccc3c2)CC1.Cl
RESULT: 16100

----------
Catalogue of concentration at 1 h values
- protocol description: plasma concentration in rats after oral administration
- Format: in vivo
- conditions: plasma; rat, oral 50 mg/kg, 60 min
Write down the value, and be sure its unit follows.

Illustrative cases are given below, each with its answer.
>  <compound>
CC(=O)N1CCN(C(=O)C(Cc2cccc(C(=N)N)c2)NS(=O)(=O)c2ccc3ccccc3c2)CC1 (stereo not drawn)

>  <outcome measure>
concentration at 1 h

>  <reported value>
63 ng/mL

$$$$
>  <compound>
CCOC(=O)N1CCN(C(=O)C(Cc2cccc(C(=N)N)c2)NS(=O)(=O)c2ccc3ccccc3c2)CC1 (racemic) [X, reference compound]

>  <outcome measure>
concentration at 1 h

>  <reported value>
10 ng/mL

$$$$

QUERY: Please give measured concentration at 1 h of the following entry: CC(=O)N1CCN(C(=O)[C@H](Cc2cccc(C(=N)N)c2)NS(=O)(=O)c2ccc3ccccc3c2)CC1.Cl
RESULT: 873 ng/mL

----------
- assay system: factor XIIa (Homo sapiens, UniProt P00748)
- Sequence (P00748 373-615 limits assumed): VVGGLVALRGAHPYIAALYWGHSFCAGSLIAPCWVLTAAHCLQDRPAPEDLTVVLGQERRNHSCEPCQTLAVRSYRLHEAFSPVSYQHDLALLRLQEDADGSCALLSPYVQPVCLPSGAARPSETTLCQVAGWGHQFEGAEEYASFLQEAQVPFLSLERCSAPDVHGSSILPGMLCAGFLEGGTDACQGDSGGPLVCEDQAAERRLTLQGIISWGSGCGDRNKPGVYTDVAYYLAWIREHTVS
- protocol description: inhibition of factor XIIa, dissociation constant Ki
Catalogue of pKi values
As a rule, pKi stands for the negative log10 of the concentration, concentration in M.

>  <compound>
COCC(=O)N1CCN(C(=O)C(Cc2cccc(C(=N)N)c2)NS(=O)(=O)c2ccc3ccccc3c2)CC1 (centres unmarked) [AMD 2-Naph COCH2 OMe]

>  <pKi>
4.13

$$$$
>  <compound>
CCOC(=O)N1CCN(C(=O)C(Cc2cccc(C(=N)N)c2)NS(=O)(=O)c2ccc3ccccc3c2)CC1 (racemic) [X, reference compound]

>  <pKi>
3.68

$$$$
>  <compound>
N=C(N)c1cccc(CC(NS(=O)(=O)c2ccc3ccccc3c2)C(=O)N2CCN(c3ncccn3)CC2)c1 (centres unmarked) [AMD 2-Naph 2-Pym]

>  <pKi>
4.00

$$$$
>  <compound>
Cc1c(C)c(S(=O)(=O)NC(Cc2cccc(C(=N)N)c2)C(=O)N2CCN(S(C)(=O)=O)CC2)c(C)c2c1OC(C)(C)CC2 (centres unmarked) [AMD Pmc SO2 Me]

>  <pKi>
3.85

$$$$

QUERY: Please give measured pKi of the following entry: N=C(N)c1cccc(CC(NS(=O)(=O)c2ccc3ccccc3c2)C(=O)N2CCN(C(=O)C3CCCCC3)CC2)c1 (centres unmarked) [AMD 2-Naph CO-cHex]
RESULT: 3.46

QUERY: Please give measured pKi of the following entry: CS(=O)(=O)N1CCN(C(=O)[C@H](Cc2cccc(C(=N)N)c2)NS(=O)(=O)c2ccc3ccccc3c2)CC1.Cl [Compound 5, hydrochloride]
RESULT: 4.28

QUERY: Please give measured pKi of the following entry: N=C(N)c1cccc(C[C@H](NS(=O)(=O)c2ccc3ccccc3c2)C(=O)N2CCN(C=O)CC2)c1 [AMD(L) 2-Naph For]
RESULT: 4.38
